# Test protocol: Protein binding in human plasma by equilibrium dialysis
# Format: in vitro ADME
# Study conditions: human, plasma, pH 7.4, human plasma, 18 hours at 37° C., read-out: hPPB (fu %)
Measured endpoint: fraction unbound at 18 h, 5 μM
Answer with a number only.

For record Nc1nccn2c1c(-c1ccc(Oc3ccccc3)cc1)nc2[C@H]1CC[C@H](CO)CC1 [reference compound] the listed fraction unbound at 18 h, 5 μM is 0.0289

For record Nc1nccn2c(C3CCC(CO)OC3)nc(-c3ccc(Oc4ccccc4)cc3)c12 (stereo not drawn) the listed fraction unbound at 18 h, 5 μM is 0.098

For record Nc1nccn2c(C3CCC(CO)OC3)nc(-c3ccc(Oc4ccccc4)c(F)c3F)c12 (single isomer, unassigned) the listed fraction unbound at 18 h, 5 μM is 0.088

For record Nc1ncnn2c1c(-c1ccc(Oc3ccccc3)cc1F)nc2[C@H]1CC[C@H](CO)CC1 [reference compound] the listed fraction unbound at 18 h, 5 μM is 0.0257

For record Nc1ncnn2c(C3CCC(CO)OC3)nc(-c3ccc(Oc4cccc(F)c4F)cc3)c12 (stereo not drawn) the listed fraction unbound at 18 h, 5 μM is 0.049

###

molecules and their reported pIC50
# Assayed target: p-BTK (Phospho-Btk Tyr223) in TMD-8 cells (Homo sapiens)
# Construct: endogenous in cells
# Sequence (Q06187 whole entry): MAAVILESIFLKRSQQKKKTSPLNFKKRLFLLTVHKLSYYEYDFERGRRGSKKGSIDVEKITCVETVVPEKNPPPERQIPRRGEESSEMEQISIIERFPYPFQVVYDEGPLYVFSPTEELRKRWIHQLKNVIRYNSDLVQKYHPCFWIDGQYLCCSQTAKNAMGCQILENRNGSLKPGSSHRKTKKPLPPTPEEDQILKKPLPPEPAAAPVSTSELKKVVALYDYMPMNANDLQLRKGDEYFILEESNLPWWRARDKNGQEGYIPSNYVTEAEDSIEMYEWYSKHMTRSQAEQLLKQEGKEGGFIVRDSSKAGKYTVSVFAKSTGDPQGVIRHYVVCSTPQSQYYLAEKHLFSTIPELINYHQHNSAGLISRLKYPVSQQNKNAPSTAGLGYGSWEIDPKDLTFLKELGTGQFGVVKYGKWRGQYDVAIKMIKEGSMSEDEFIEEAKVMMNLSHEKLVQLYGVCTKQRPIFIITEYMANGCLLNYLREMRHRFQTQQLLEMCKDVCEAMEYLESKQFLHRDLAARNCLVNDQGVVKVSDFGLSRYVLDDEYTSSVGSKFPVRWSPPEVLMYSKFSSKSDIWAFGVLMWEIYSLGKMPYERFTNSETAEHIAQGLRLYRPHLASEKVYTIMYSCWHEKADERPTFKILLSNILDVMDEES
# Test protocol: TMD8 cell line p-BTK Elisa assay
# Study conditions: pervanadate 100 μM, Tyr223 ELISA
Entry type: numeric. Quantity: pIC50, the -log10 of concentration in molar units.

Please review the entries below; each comes with its answer.
* Nc1ncnn2c(C3CCC(CO)OC3)nc(-c3ccc(Oc4ccccc4)cc3F)c12 (single isomer, unassigned) [Compound 8] | 7.38
* Nc1nccn2c(C3CCC(CO)OC3)nc(-c3ccc(Oc4ccccc4)c(F)c3F)c12 (single isomer, unassigned) [Compound 4] | 7.51

For record Nc1nccn2c(C3CCC(CO)OC3)nc(-c3ccc(Oc4cccc(F)c4F)cc3)c12 (single isomer, unassigned) [Compound 7] the listed pIC50 is 6.86

###

# Assayed target: Recombinant BTK(C481S) (Homo sapiens, UniProt Q06187, C481S)
# Sequence (Q06187 whole entry C481S): as the sequence (Q06187 whole entry) above, with C481S counted along it
# Test protocol: BTK C481S HTRF kinase assay
# Study conditions: 30 min pre-incubation, 120 min reaction
# Protocol: [The procedure below names another variant; the source lists this variant under the same test.] Recombinant BTK wild type (BTK WT) was purchased from Thermo fisher. In brief, recombinant kinases were pre-incubated in the presence or absence of compound at room temperature for 30 minutes. The reaction was initiated by the addition of the ATP and substrate peptide which could be phosphorylated by kinases in the reaction. After 120 minutes incubation, the reaction was stopped by the addition of the detection reagent mix containing EDTA.
pIC50: −log10 of the molar value.
Short version: pIC50 at least 9 is T, less is F.

// below: answered compounds
- Nc1ncnn2c(C3CCC(CO)OC3)nc(-c3ccc(Oc4ccccc4)cc3F)c12 (single isomer, unassigned) [Compound 9]: F
- Nc1nccn2c(C3CCC(CO)OC3)nc(-c3ccc(Oc4cccc(F)c4F)cc3)c12 (single isomer, unassigned) [Compound 6]: T
- Nc1nccn2c(C3CCC(CO)OC3)nc(-c3ccc(Oc4ccccc4)c(F)c3F)c12 (single isomer, unassigned) [Compound 5]: F
- Nc1ncnn2c(C3CCC(CO)OC3)nc(-c3ccc(Oc4ccccc4)c(F)c3F)c12 (centres unmarked) [Compound 12]: T

Next compound, please.
Challenge: API: above_or_equal(metric=pIC50, cutoff=9) for item Nc1ncnn2c(C3CCC(CO)OC3)nc(-c3ccc(Oc4ccccc4)cc3F)c12 (single isomer, unassigned) [Compound 8]
Response given: F

###

# Test protocol: Log D determination (octanol/phosphate buffer)
# Format: physicochemical
# Study conditions: 25° C.
# Method: 10 μL of working solution of each cassette is placed in order into respective 96-well rack position (Log D plate). […] The 10 folds buffer samples are serially diluted into 100, 1,000 and 10,000 folds with a mixture of H2O and acetonitrile containing internal standard (1:1). The samples are evaluated by LC/MS/MS analysis. […] All calculations are carried out using Microsoft Excel. The concentrations of test compound in octanol/buffer solution are evaluated by LC/MS/MS. […]
compounds and their reported logD
Answer with a number only.

* Nc1nccn2c(C3CCC(CO)OC3)nc(-c3ccc(Oc4ccccc4)c(F)c3F)c12 (single isomer, unassigned) [Compound 5] | 2.89
* Nc1ncnn2c(C3CCC(CO)OC3)nc(-c3ccc(Oc4ccccc4)cc3F)c12 (single isomer, unassigned) [Compound 11] | 3.09
* Nc1nccn2c(C3CCC(CO)OC3)nc(-c3ccc(Oc4cccc(F)c4F)cc3)c12 (single isomer, unassigned) [Compound 7] | 3.19

# context switch: different compound, same logD
For record Nc1ncnn2c(C3CCC(CO)OC3)nc(-c3ccc(Oc4ccccc4)cc3F)c12 (single isomer, unassigned) [Compound 10] the listed logD is 3.07

###

# Test protocol: Log D determination (octanol/phosphate buffer)
# Format: physicochemical
# Study conditions: 25° C.
# Experimental: 10 μL of working solution of each cassette is placed in order into respective 96-well rack position (Log D plate). […] The 10 folds buffer samples are serially diluted into 100, 1,000 and 10,000 folds with a mixture of H2O and acetonitrile containing internal standard (1:1). The samples are evaluated by LC/MS/MS analysis. […] All calculations are carried out using Microsoft Excel. The concentrations of test compound in octanol/buffer solution are evaluated by LC/MS/MS. […]
molecules and their reported logD at 2 h
Answer with a number only.

Please review the entries below; each comes with its answer.
- Nc1nccn2c(C3CCC(CO)OC3)nc(-c3ccc(Oc4ccccc4)cc3F)c12 (single isomer, unassigned): 3.01
- Nc1nccn2c(C3CCC(CO)OC3)nc(-c3ccc(Oc4cccc(F)c4F)cc3)c12 (single isomer, unassigned): 3.28
- Nc1nccn2c1c(-c1ccc(Oc3ccccc3)cc1)nc2[C@H]1CC[C@H](CO)CC1 [reference compound]: 4.16
- Nc1ncnn2c(C3CCC(CO)OC3)nc(-c3ccc(Oc4cccc(F)c4F)cc3)c12 (stereo not drawn): 3.29
- Nc1ncnn2c(C3CCC(CO)OC3)nc(-c3ccc(Oc4ccccc4)c(F)c3F)c12 (stereo not drawn): 3.18

For record Nc1ncnn2c(C3CCC(CO)OC3)nc(-c3ccc(Oc4ccccc4)cc3F)c12 (single isomer, unassigned) the listed logD at 2 h is 3.1

For record Nc1nccn2c(C3CCC(CO)OC3)nc(-c3ccc(Oc4ccccc4)c(F)c3F)c12 (single isomer, unassigned) the listed logD at 2 h is 3.1

For record Nc1nccn2c(C3CCC(CO)OC3)nc(-c3ccc(Oc4ccccc4)cc3)c12 (stereo not drawn) the listed logD at 2 h is 3.14

For record Nc1ncnn2c1c(-c1ccc(Oc3ccccc3)cc1F)nc2[C@H]1CC[C@H](CO)CC1 [reference compound] the listed logD at 2 h is 3.98

###

compounds and their reported pIC50
# Assayed target: Recombinant BTK wild type (BTK WT) (Homo sapiens, UniProt Q06187)
# Sequence (Q06187 whole entry): as the sequence (Q06187 whole entry) above
# Test protocol: BTK WT HTRF kinase assay
# Study conditions: 30 min pre-incubation, 120 min reaction
Entry type: numeric. Quantity: pIC50, the -log10 of concentration in molar units.

Please review the entries below; each comes with its answer.
• Nc1nccn2c(C3CCC(CO)OC3)nc(-c3ccc(Oc4ccccc4)cc3)c12 (stereo not drawn) = 8.94
• Nc1nccn2c(C3CCC(CO)OC3)nc(-c3ccc(Oc4ccccc4)cc3F)c12 (single isomer, unassigned) [Compound 2] = 9.22
• Nc1nccn2c(C3CCC(CO)OC3)nc(-c3ccc(Oc4ccccc4)c(F)c3F)c12 (single isomer, unassigned) [Compound 4] = 9.31
• Nc1nccn2c(C3CCC(CO)OC3)nc(-c3ccc(Oc4cccc(F)c4F)cc3)c12 (single isomer, unassigned) [Compound 6] = 9.21
• Nc1ncnn2c(C3CCC(CO)OC3)nc(-c3ccc(Oc4ccccc4)c(F)c3F)c12 (stereo not drawn) [Compound 12] = 9.57
• Nc1ncnn2c(C3CCC(CO)OC3)nc(-c3ccc(Oc4ccccc4)cc3F)c12 (single isomer, unassigned) [Compound 8] = 8.46
• Nc1nccn2c(C3CCC(CO)OC3)nc(-c3ccc(Oc4ccccc4)c(F)c3F)c12 (single isomer, unassigned) [Compound 5] = 8.31
• Nc1ncnn2c(C3CCC(CO)OC3)nc(-c3ccc(Oc4ccccc4)cc3F)c12 (single isomer, unassigned) [Compound 10] = 9.05
• Nc1ncnn2c(C3CCC(CO)OC3)nc(-c3ccc(Oc4ccccc4)cc3F)c12 (single isomer, unassigned) [Compound 11] = 8.35
• Nc1nccn2c(C3CCC(CO)OC3)nc(-c3ccc(Oc4cccc(F)c4F)cc3)c12 (single isomer, unassigned) [Compound 7] = 8.80

The compound Nc1ncnn2c(C3CCC(CO)OC3)nc(-c3ccc(Oc4cccc(F)c4F)cc3)c12 (stereo not drawn) [Compound 14] on Recombinant BTK wild type (BTK WT) (Homo sapiens, UniProt Q06187): pIC50 was 9.15

The compound Nc1ncnn2c(C3CCC(CO)OC3)nc(-c3ccc(Oc4ccccc4)c(F)c3F)c12 (stereo not drawn) [Compound 13] on Recombinant BTK wild type (BTK WT) (Homo sapiens, UniProt Q06187): pIC50 was 8.48

The compound Nc1ncnn2c(C3CCC(CO)OC3)nc(-c3ccc(Oc4ccccc4)cc3F)c12 (single isomer, unassigned) [Compound 9] on Recombinant BTK wild type (BTK WT) (Homo sapiens, UniProt Q06187): pIC50 was 8.06

The compound Nc1ncnn2c(C3CCC(CO)OC3)nc(-c3ccc(Oc4cccc(F)c4F)cc3)c12 (stereo not drawn) [Compound 15] on Recombinant BTK wild type (BTK WT) (Homo sapiens, UniProt Q06187): pIC50 was 8.17

The compound Nc1nccn2c(C3CCC(CO)OC3)nc(-c3ccc(Oc4ccccc4)cc3F)c12 (single isomer, unassigned) [Compound 3] on Recombinant BTK wild type (BTK WT) (Homo sapiens, UniProt Q06187): pIC50 was 8.20
